Hi there, I'd appreciate the recorded EC50 for every entry that follows.
target: human LILRB4 (human, UniProt Q8NHJ6 22-448); assay: ELISA; panel A
Sequence (Q8NHJ6 22-448): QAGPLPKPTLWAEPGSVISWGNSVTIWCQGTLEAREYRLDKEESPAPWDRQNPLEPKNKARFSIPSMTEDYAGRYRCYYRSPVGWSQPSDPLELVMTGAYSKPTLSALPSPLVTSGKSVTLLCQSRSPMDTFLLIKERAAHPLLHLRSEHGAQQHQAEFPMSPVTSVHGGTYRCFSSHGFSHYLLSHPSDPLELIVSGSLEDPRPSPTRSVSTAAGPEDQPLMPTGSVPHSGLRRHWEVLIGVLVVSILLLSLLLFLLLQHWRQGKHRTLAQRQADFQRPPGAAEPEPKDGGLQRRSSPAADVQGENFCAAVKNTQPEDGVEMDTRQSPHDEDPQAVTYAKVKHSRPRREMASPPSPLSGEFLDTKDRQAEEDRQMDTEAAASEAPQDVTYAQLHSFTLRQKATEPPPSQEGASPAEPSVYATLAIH
One number for each entry, in nM.

BINDER: h2-H1-D7-E5-D5 (antibody, V domains shown) VH: EVQLVESGGGLVQPGGSLRLSCAASGFTFSSFGMHWVRQAPGKGLEWVAYISSGSSSIYYADTVKGRFTISRDNAKNSLYLQMNSLRAEDTAVYYCARGTGTGAMDYWGQGTLVTVSS VL: DIQMTQSPSSLSASVGDRVTITCRTSQDISNYLNWYQQKPGKAPKLLIYYTSKLHSGVPSRFSGSGSGTDFTFTISSLQPEDIATYFCQQGNTLPWTFGGGTKLEIK
EC50 (nM): 7.96
//
BINDER: NGM831 (antibody, V domains shown) VH: EVQLQQSGPEVKPGASVKISCKASGYTFTDYNMDWVKQSHGKSEWIGYIYPSNGGTGYNQKFKSKATLTVDKSSNTAYMELHSLTSEDSAVYYCARVPYYDYLYYYAMDYWGQGTSVTVSS VL: QIVLSQSPAILSASPGEKVTMACRASSSVSFMHWYQQKPGSSPQPWIYATSNLASGVPARFSGSGSGTSYSLTISRVEAEDAATYYCQQWSTNPYMYTFGGGTKLEIK
EC50 (nM): 0.0372
//
BINDER: ch2-H1-D7-E5-D5 (antibody, V domains shown) VH: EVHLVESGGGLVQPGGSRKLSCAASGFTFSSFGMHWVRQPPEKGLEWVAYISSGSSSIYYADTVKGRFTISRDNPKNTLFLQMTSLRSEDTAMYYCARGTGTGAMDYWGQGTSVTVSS VL: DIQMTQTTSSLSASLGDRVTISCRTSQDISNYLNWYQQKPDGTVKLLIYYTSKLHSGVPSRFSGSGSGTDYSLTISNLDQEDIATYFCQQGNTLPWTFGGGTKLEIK
EC50 (nM): 1.12

Lab note: next binder to report on.
Which EC50 reading was recorded for the binder IO-202 (antibody, V domains shown) VH: EVQLLESGGGLVQPGGSLRLSCAASGIDFSNHYYMYWVRQAPGKGLEWIGSIFSGDSASTYYADSAKGRFTISRDNSKNTLYLQMNSLRAEDTAVYYCARGMSTNDWASDLWGQGTLVTVSS VL: DIQMTQSPSSLSASVGDRVTITCQASESINSIYLAWYQQKPGKAPKLLIYRASTLASGVPSRFSGSGSGTDFTLTISSLQPEDFATYYCQQSYDWGDVENTFGGGTKVEIK ?
0.0172
